Target: T1, human IL-33 (R&D Systems, #3625-IL-010/CF) (human, UniProt O95760 112-270)
T1 sequence (looked up): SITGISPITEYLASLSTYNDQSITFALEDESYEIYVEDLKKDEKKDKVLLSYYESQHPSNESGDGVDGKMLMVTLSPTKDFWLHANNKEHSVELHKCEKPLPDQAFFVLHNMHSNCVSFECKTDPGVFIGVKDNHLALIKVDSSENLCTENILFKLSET
Test: cell-based or functional assay
Below, each of the binders is paired with its reported IC50, inhibition of 10 pM hIL-33 activation of HEK293/hST2/NFkB-luciferase cells value.
Supply the numeric figure in M, leaving out any unit text.

For orientation, consider the following solved cases.
* H4H9670P (antibody, V domains shown, Human IgG4 Fc (H4H)) VH: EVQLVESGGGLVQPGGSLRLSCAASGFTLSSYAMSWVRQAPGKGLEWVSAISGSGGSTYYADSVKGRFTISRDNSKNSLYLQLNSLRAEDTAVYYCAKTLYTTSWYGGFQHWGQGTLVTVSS VL: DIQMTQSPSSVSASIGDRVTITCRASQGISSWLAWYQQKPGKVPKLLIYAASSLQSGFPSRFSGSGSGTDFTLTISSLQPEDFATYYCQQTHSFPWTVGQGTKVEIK | 1.2e-10
* H4H9665P (antibody, human IgG4, V domains shown, Human IgG4 Fc (H4H)) VH: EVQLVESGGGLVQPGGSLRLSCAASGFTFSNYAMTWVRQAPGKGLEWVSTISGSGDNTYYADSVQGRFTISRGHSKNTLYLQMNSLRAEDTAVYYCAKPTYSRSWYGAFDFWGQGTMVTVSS VL: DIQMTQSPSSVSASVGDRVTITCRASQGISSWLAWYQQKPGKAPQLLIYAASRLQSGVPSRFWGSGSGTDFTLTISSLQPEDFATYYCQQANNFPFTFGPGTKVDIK | 9e-11
* H4H9663P (antibody, human IgG4, V domains shown, Human IgG4 Fc (H4H)) VH: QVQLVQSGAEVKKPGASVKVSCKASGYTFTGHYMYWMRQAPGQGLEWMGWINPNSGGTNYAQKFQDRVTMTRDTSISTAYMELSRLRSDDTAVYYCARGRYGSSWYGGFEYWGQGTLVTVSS VL: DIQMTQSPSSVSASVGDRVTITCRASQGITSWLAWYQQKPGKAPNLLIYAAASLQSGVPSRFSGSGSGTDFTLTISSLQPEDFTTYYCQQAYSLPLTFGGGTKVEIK | 1.3e-10

q: Find the recorded IC50, inhibition of 10 pM hIL-33 activation of HEK293/hST2/NFkB-luciferase cells belonging to H4H9660P (antibody, human IgG4, V domains shown, Human IgG4 Fc (H4H)) VH: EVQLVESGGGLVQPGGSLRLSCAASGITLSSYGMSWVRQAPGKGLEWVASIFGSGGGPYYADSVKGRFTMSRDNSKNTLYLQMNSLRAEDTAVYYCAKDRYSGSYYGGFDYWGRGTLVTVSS VL: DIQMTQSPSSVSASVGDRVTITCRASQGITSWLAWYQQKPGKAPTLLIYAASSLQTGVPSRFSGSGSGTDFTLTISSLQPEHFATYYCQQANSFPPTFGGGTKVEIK and report it.
a: 3.5e-11
